System: Proteus vulgaris HX 19
Protocol Notes: Minimum Inhibitory Concentration, Proteus vulgaris HX 19
Assay type: cell-based
Condition Summary: HX19; Proteus vulgaris HX 19; read-out: Minimum Inhibitory Concentration
Endpoint: log10 MIC (log10 of the value in µg/mL)
The figures below represent log10 of MIC, where MIC is stated in µg/mL.

A selection of reference data follows.
INSERT INTO assay_data (molecule, endpoint, assay_result) VALUES
  ('COc1ccc2ncc(C(=O)NC(C(=O)NC3C(=O)N4C(C(=O)O)=C(CSc5cnn[nH]5)CSC34)c3ccc(CO)cc3)c(O)c2n1 (stereo not drawn)', 'log10 MIC', -0.70),
  ('NC(=O)Nc1ccc([C@@H](NC(=O)c2cncnc2O)C(=O)N[C@@H]2C(=O)N3C(C(=O)O)=C(CSc4nncs4)CS[C@H]23)cc1', 'log10 MIC', -0.70),
  ('Cc1nnc(SCC2=C(C(=O)O)N3C(=O)C(NC(=O)[C@H](NC(=O)c4cnc5cccnc5c4O)c4ccc(O)cc4)C3SC2)s1 (stereo partly drawn)', 'log10 MIC', -1.00),
  ('Cc1nnc(SCC2=C(C(=O)O)N3C(=O)[C@@H](NC(=O)[C@H](NC(=O)c4ccnnc4O)c4cccc(NC(N)=O)c4)[C@H]3SC2)s1', 'log10 MIC', -1.00);

Problem: # lookup: log10 MIC of Cn1nnnc1SCC1=C(C(=O)O)N2C(=O)[C@@H](NC(=O)[C@H](NC(=O)c3cnc4cccnc4c3O)c3cccc(NC(N)=O)c3)[C@H]2SC1
Solution: -1.00

Problem: # lookup: log10 MIC of CN(C)c1ccc2ncc(C(=O)N[C@@H](C(=O)NC3C(=O)N4C(C(=O)O)=C(CSc5n[nH]c(=O)s5)CSC34)c3ccc(O)c(F)c3)c(O)c2n1 (stereo partly drawn)
Solution: -0.41

Problem: # lookup: log10 MIC of CC(=O)OCC1=C(C(=O)O)N2C(=O)[C@@H](NC(=O)[C@H](N)c3ccccc3)[C@H]2SC1 [CEG, reference compound]
Solution: 1.10

Problem: # lookup: log10 MIC of CC(=O)OCC1=C(C(=O)O)N2C(=O)[C@@H](NC(=O)[C@H](NC(=O)c3cnc(O)nc3O)c3ccc(NC(N)=O)cc3)[C@H]2SC1
Solution: -0.70

Problem: # lookup: log10 MIC of Cc1ccc2c(O)c(C(=O)N[C@@H](C(=O)N[C@@H]3C(=O)N4C(C(=O)O)=C(CSc5nnnn5C)CS[C@H]34)c3ccc(NC(N)=O)cc3)cnc2n1
Solution: -0.70

Problem: # lookup: log10 MIC of CC(=O)OCC1=C(C(=O)O)N2C(=O)C(NC(=O)[C@H](NC(=O)c3ccnnc3O)c3ccc(O)cc3)C2SC1 (stereo partly drawn)
Solution: -0.70

Problem: # lookup: log10 MIC of Cc1ccc2c(O)c(C(=O)NC(C(=O)NC3C(=O)N4C(C(=O)O)=C(CSc5nnc(C)s5)CSC34)c3cccc(O)c3)cnc2n1 (stereo not drawn)
Solution: -0.11

Problem: # lookup: log10 MIC of O=C(O)C1=C(CSc2cnn[nH]2)CSC2C(NC(=O)C(NC(=O)c3cnc4cccnc4c3O)c3ccc(CO)cc3)C(=O)N12 (stereo not drawn)
Solution: -0.70

----------
Minimum Inhibitory Concentration values by entry
Test system: Staphylococcus aureus 209 P
Protocol Notes: Minimum Inhibitory Concentration, Staphylococcus aureus 209 P
Format: cell-based
Condition Summary: Staphylococcus aureus 209 P
Remember to put the unit after the number in your answer.

A selection of reference data follows.
INSERT INTO assay_data (molecule, assay_result) VALUES
  ('CC(=O)OCC1=C(C(=O)[O-])N2C(=O)C(NC(=O)C(NC(=O)c3ccnnc3O)c3ccc(NC(N)=O)cc3)C2SC1.[Na+] (stereo not drawn)', '0.39 µg/mL'),
  ('CC(=O)OCC1=C(C(=O)[O-])N2C(=O)C(NC(=O)C(NC(=O)c3cnc4ncncc4c3O)c3ccc(O)cc3)C2SC1.[Na+] (stereo not drawn)', '1.56 µg/mL'),
  ('Nc1cccc(C(NC(=O)c2cnccc2O)C(=O)NC2C(=O)N3C(C(=O)O)=C(CSc4nnc(CO)s4)CSC23)c1 (stereo not drawn)', '0.39 µg/mL'),
  ('CSc1cnc2c(O)c(C(=O)NC(C(=O)NC3C(=O)N4C(C(=O)[O-])=C(COC(C)=O)CSC34)c3cccc(O)c3)cnc2n1.[Na+] (stereo not drawn)', '0.78 µg/mL'),
  ('Cn1nnnc1SCC1=C(C(=O)[O-])N2C(=O)C(NC(=O)C(NC(=O)c3cnc4cccnc4c3O)c3cccc(N)c3)C2SC1.[Na+] (stereo not drawn)', '0.78 µg/mL');

Next up:
Problem: # lookup: Minimum Inhibitory Concentration of CC(=O)OCC1=C(C(=O)[O-])N2C(=O)C(NC(=O)C(NC(=O)c3cnc4nc(C)cnc4c3O)c3ccc(O)cc3)C2SC1.[Na+] (stereo not drawn)
Solution: 0.78 µg/mL

----------
System: Proteus vulgaris HX 19
Protocol Notes: Minimum Inhibitory Concentration, Proteus vulgaris HX 19
Type: cell-based
Condition Summary: HX19; Proteus vulgaris HX 19; read-out: Minimum Inhibitory Concentration
Endpoint: MIC (µg/mL)
Quick reminder: number only, in µg/mL, skip the unit.

INSERT INTO measurements (compound, assay_result) VALUES
  ('CSc1ncc2c(O)c(C(=O)NC(C(=O)NC3C(=O)N4C(C(=O)O)=C(CSc5cnn[nH]5)CSC34)c3cccc(N)c3)cnc2n1 (stereo not shown)', 0.2),
  ('CNc1nnc(SCC2=C(C(=O)O)N3C(=O)C(NC(=O)C(NC(=O)c4cnc5cccnc5c4O)c4cccc(N)c4)C3SC2)s1 (stereo not shown)', 0.2);

Problem: # lookup: MIC of COc1ccc2ncc(C(=O)N[C@@H](C(=O)N[C@@H]3C(=O)N4C(C(=O)O)=C(CSc5nnnn5C)CS[C@H]34)c3cccc(NC(N)=O)c3)c(O)c2n1
Solution: 0.1

Problem: # lookup: MIC of Cc1nnc(SCC2=C(C(=O)O)N3C(=O)C(NC(=O)C(NC(=O)c4cnc5nc(N(C)C)ncc5c4O)c4ccc(O)c(O)c4)C3SC2)s1 (stereo not shown)
Solution: 0.78

Problem: # lookup: MIC of Cn1nnnc1SCC1=C(C(=O)O)N2C(=O)C(NC(=O)C(NC(=O)c3cnc4sccc4c3O)c3ccc(O)cc3)C2SC1 (stereo not shown)
Solution: 0.78

Problem: # lookup: MIC of CC(=O)OCC1=C(C(=O)O)N2C(=O)C(NC(=O)C(NC(=O)c3cnc4cccnc4c3O)c3ccc(CO)cc3)C2SC1 (racemic)
Solution: 0.78

Problem: # lookup: MIC of O=C(O)C1=C(CSc2nnc(CO)s2)CSC2C(NC(=O)[C@H](NC(=O)c3cnc4cccnc4c3O)c3ccc(O)cc3)C(=O)N12 (stereo partly shown)
Solution: 0.2

Problem: # lookup: MIC of Nc1cccc(C(NC(=O)c2cnc3cccnc3c2O)C(=O)NC2C(=O)N3C(C(=O)O)=C(CSc4cnn[nH]4)CSC23)c1 (stereo not shown)
Solution: 0.1

Problem: # lookup: MIC of Cn1nnnc1SCC1=C(C(=O)O)N2C(=O)C(NC(=O)C(NC(=O)c3cnc4nc(N5CCNCC5)ncc4c3O)c3ccc(O)cc3)C2SC1 (stereo not shown)
Solution: 0.39

Problem: # lookup: MIC of NC(=O)Nc1cccc(C(NC(=O)c2cccnc2O)C(=O)NC2C(=O)N3C(C(=O)O)=C(CSc4nnc(CO)s4)CSC23)c1 (stereo not shown)
Solution: 0.78

Problem: # lookup: MIC of NC(=O)Nc1cccc(C(NC(=O)c2cnccc2O)C(=O)NC2C(=O)N3C(C(=O)O)=C(CSc4ccc(O)nn4)CSC23)c1 (stereo not shown)
Solution: 0.39

Problem: # lookup: MIC of Cc1nnc(SCC2=C(C(=O)O)N3C(=O)C(NC(=O)C(NC(=O)c4cnc5c(O)ccnc5c4O)c4cccc(N)c4)C3SC2)s1 (stereo not shown)
Solution: 0.2

Problem: # lookup: MIC of Nc1ccc(C(NC(=O)c2cnc3cccnc3c2O)C(=O)NC2C(=O)N3C(C(=O)O)=C(CSc4nnc(CO)s4)CSC23)cc1 (stereo not shown)
Solution: 0.1

----------
Tested on: Proteus vulgaris HX 19
Protocol Notes: Minimum Inhibitory Concentration, Proteus vulgaris HX 19
Assay type: cell-based
Condition Summary: HX19; Proteus vulgaris HX 19; read-out: Minimum Inhibitory Concentration
MIC values by entry
Remember to put the unit after the number in your answer.

A selection of reference data follows.
INSERT INTO measurements (molecule, endpoint, assay_result) VALUES
  ('Cc1nnc(SCC2=C(C(=O)O)N3C(=O)C(NC(=O)C(NC(=O)c4cnccc4O)c4ccc(O)c(O)c4)C3SC2)s1 (stereo not drawn) [Example 183]', 'MIC', '0.39 µg/mL'),
  ('Nc1cccc(C(NC(=O)c2cnc3cccnc3c2O)C(=O)NC2C(=O)N3C(C(=O)O)=C(CSc4n[nH]c(=O)s4)CSC23)c1 (stereo not drawn) [Example 80]', 'MIC', '0.2 µg/mL'),
  ('Cc1nc2ncc(C(=O)NC(C(=O)NC3C(=O)N4C(C(=O)O)=C(CSc5nnnn5C)CSC34)c3ccc(CO)cc3)c(O)c2nc1C (stereo not drawn) [Example 105]', 'MIC', '0.2 µg/mL'),
  ('CC(=O)OCC1=C(C(=O)O)N2C(=O)C(NC(=O)[C@H](NC(=O)c3cnccc3O)c3ccc(O)c(Cl)c3)C2SC1 (stereo partly drawn) [Example 117]', 'MIC', '0.2 µg/mL');

Problem: # lookup: MIC of Cn1nnnc1SCC1=C(C(=O)O)N2C(=O)C(NC(=O)C(NC(=O)c3cnc4cccnc4c3O)c3cccc(O)c3)C2SC1 (stereo not drawn) [Example 180]
Solution: 0.1 µg/mL

Problem: # lookup: MIC of Cc1nnc(SCC2=C(C(=O)O)N3C(=O)[C@@H](NC(=O)[C@H](NC(=O)c4cnc5ccc(N(C)C)nc5c4O)c4ccc(NC(N)=O)cc4)[C@H]3SC2)s1 [Example 28]
Solution: 0.1 µg/mL
